Population Tubulin-Different-Phenotype (%) values for the compounds below.
Tested on: HEK-293T
Assay: Multiplex assay against HEK293T
Type: toxicity, cell-based
Conditions: human, 48 h, 10 µM, compound concentration 10 uM
EXPERIMENTAL READOUT: Population Tubulin-Different-Phenotype (%)

# COMPOUND, SCALE UNIT, RESULT NUMBER
data = [
    ("CCCCC1=NC2(CCCC2)C(=O)N1Cc1ccc(-c2ccccc2-c2nnn[nH]2)cc1 [IRBESARTAN]", "%", 15),
    ("O=C(O)CCC/C=C\\CC1C(O)CC(O)C1/C=C/C(O)COc1cccc(Cl)c1 (centres undefined) [CLOPROSTENOL]", "%", 18),
    ("O=C1NC(NC23CC4CC(CC(C4)C2)C3)=N/C1=C\\c1ccc2ncsc2c1", "%", 0),
    ("Cl.Cl.OCCOCCN1CCN(C(c2ccccc2)c2ccc(Cl)cc2)CC1 (centres undefined) [HYDROXYZINE HYDROCHLORIDE]", "%", 35),
]

----------
This listing pairs compounds with measured Population Hoechst High Intensity Objects (%).
Test system: U2OS
Experiment: Multiplex assay against U2OS
Assay type: toxicity, cell-based
Settings: human, 48 h, 1 µM, compound concentration 1 uM
EXPERIMENTAL READOUT: Population Hoechst High Intensity Objects (%)

# COMPOUND, RESULT
measured = [
    ("COC(c1ccccc1)(c1ccccc1)[C@H](Oc1nc(C)cc(C)n1)C(=O)O", "2%"),
    ("Cc1cc(C(C#N)c2ccc(Cl)cc2)c(Cl)cc1NC(=O)c1cc(I)cc(I)c1O (centres undefined)", "0%"),
    ("COc1ccc(CC(=O)NC(N/C(=N/C#N)Nc2cccc3ncccc23)C(C)(C)C)cc1OC (centres undefined)", "0%"),
    ("CC(C)(c1ccc(O)cc1)c1ccc(O)cc1", "0%"),
    ("CC(C)C[C@H](CO)Nc1nc(S[C@@H](C)c2ccccc2)nc2nc(N)sc12", "2%"),
    ("Cc1ccc(-c2c(C(=O)CF)n(CCCO)c3ncnc(N)c23)cc1", "0%"),
    ("CCn1c(-c2ccncc2)cc2c1CCNC2=O", "0%"),
    ("CCOC(=O)c1c(/C(C#N)=C\\N)c2ccc(Cl)c(Cl)c2n1C", "0%"),
    ("O=C(O)C(F)(F)F.O=C1NC(=O)/C(=C/c2c[nH]c(=O)c(-c3ccc(N4CCNCC4)nc3)c2)S1", "0%"),
    ("CCCCCN1C(=O)C2(COc3cc4c(cc32)OCO4)c2ccccc21 (centres undefined)", "0%"),
    ("CN1[C@@H](CC(=O)c2ccccc2)CCC[C@H]1C[C@H](O)c1ccccc1.Cl [LOBELINE HYDROCHLORIDE]", "0%"),
    ("Nc1nc(CC(=O)Nc2ccc(CCNC[C@H](O)c3ccccc3)cc2)cs1", "2%"),
    ("COc1cc(N2CCN(C)CC2)ccc1Nc1nccc(-c2cn(C)c3cnccc23)n1", "0%"),
    ("Cl.Cl.OCCOCCN1CCN(C(c2ccccc2)c2ccc(Cl)cc2)CC1 (centres undefined) [HYDROXYZINE HYDROCHLORIDE]", "2%"),
    ("Cc1ccccc1C(=O)Nc1ccc(C(=O)N2CCCC(N(C)C)c3ccccc32)cc1.Cl (centres undefined)", "1%"),
    ("C=CC(=O)N1CCC[C@@H](n2nc(C(=O)Nc3ccc(CC(=O)N(C)C)c(C)c3C)c3c(N)ncnc32)C1", "0%"),
    ("COC(=O)C1=C(C)NC(C)=C(C(=O)OC(C)C)C1c1cccc2nonc12 (centres undefined)", "0%"),
    ("Cc1cc(=O)n(C)c2cc(N3C(=O)CC[C@H](NS(=O)(=O)CC(C)C)[C@H]3c3ccc(Cl)cc3)ccc12", "1%"),
    ("CCC(=N\\O)/C(C)=C/c1ccc(F)cc1", "0%"),
]

----------
Listing of entries alongside the reported Population Normal (%).
System: HEK-293T
Experiment: Multiplex assay against HEK293T
Type: toxicity, cell-based
Conditions: human, 48 h, 1 µM, compound concentration 1 uM
EXPERIMENTAL READOUT: Population Normal (%)

# COMPOUND SMILES, SCALE UNIT, RESULT NUMBER
data = [
    ("COc1ccc2c(c1OCc1ccccc1)C[C@@H](C(=O)O)N(C(=O)C(c1ccccc1)c1ccccc1)C2", "%", 97),
    ("CC[C@@H](C)Nc1nc(C)nc2c(-c3ccc(OC)nc3C)c(C)nn12", "%", 97),
    ("CCOC(=O)c1c(/C(C#N)=C\\N)c2ccc(Cl)c(Cl)c2n1C", "%", 100),
]

----------
Test system: U2OS
Test: Multiplex assay against U2OS
Format: toxicity, cell-based
Settings: human, 12 h, 1 µM, compound concentration 1 uM
EXPERIMENTAL READOUT: Population Pyknosed Nuclei (%)

# COMPOUND SMILES, SUBJECT OF TEST, EXPERIMENTAL READOUT, SCALE UNIT, RESULT NUMBER
measured = [
    ("Nc1nc(CC(=O)Nc2ccc(CCNC[C@H](O)c3ccccc3)cc2)cs1", "U2OS", "Population Pyknosed Nuclei (%)", "%", 12),
    ("CCCCC1=NC2(CCCC2)C(=O)N1Cc1ccc(-c2ccccc2-c2nnn[nH]2)cc1", "U2OS", "Population Pyknosed Nuclei (%)", "%", 7),
    ("CCCCC[C@H](O)/C=C/[C@H]1[C@H](O)CC(=O)[C@@H]1CCCCCCC(=O)O", "U2OS", "Population Pyknosed Nuclei (%)", "%", 6),
    ("N#Cc1c(Oc2cccc(OS(=O)(=O)CCCC(F)(F)F)c2)cccc1C(F)(F)F", "U2OS", "Population Pyknosed Nuclei (%)", "%", 10),
    ("Cn1cc(C(=O)OCC2CCN(CCNS(C)(=O)=O)CC2)c2ccccc21", "U2OS", "Population Pyknosed Nuclei (%)", "%", 8),
    ("Cc1cnc(-c2cc(N3CCN(C(=O)CCS(C)(=O)=O)CC3)ncc2Cl)c(C)c1", "U2OS", "Population Pyknosed Nuclei (%)", "%", 8),
    ("COc1cc(OC2CCN(C(C)=O)CC2)ccc1C(=O)N1CCC(N2C(=O)OCc3ccccc32)CC1", "U2OS", "Population Pyknosed Nuclei (%)", "%", 9),
]

----------
Catalogue of Population Hoechst High Intensity Objects (%) readings, one per entry.
Test system: HEK-293T
Assay: Multiplex assay against HEK293T
Format: toxicity, cell-based
Conditions: human, 24 h, 10 µM, compound concentration 10 uM
EXPERIMENTAL READOUT: Population Hoechst High Intensity Objects (%)

# COMPOUND, RESULT NUMBER
rows = [
    ("CN1[C@@H](CC(=O)c2ccccc2)CCC[C@H]1C[C@H](O)c1ccccc1.Cl [LOBELINE HYDROCHLORIDE]", 0),
    ("NC1=NC(=O)/C(=C2\\CCNC(=O)c3[nH]c4ccccc4c32)N1", 0),
    ("COc1ccc2c(c1OCc1ccccc1)C[C@@H](C(=O)O)N(C(=O)C(c1ccccc1)c1ccccc1)C2", 6),
]

----------
Tested on: Fibroblast
Experiment: Multiplex assay against human fibroblast
Assay type: toxicity, cell-based
Settings: 24 h, 1 µM, compound concentration 1 uM
The following molecules are shown together with reported Population Normal (%) values.

# MOLECULE, SCALE UNIT, Population Normal (%)
data = [
    ("CCC(=N\\O)/C(C)=C/c1ccc(F)cc1", "%", 100),
    ("Cc1c(-c2cc(-c3ccccc3Cl)no2)cnn1C1CCNCC1.Cl", "%", 100),
    ("CCn1c(-c2ccncc2)cc2c1CCNC2=O", "%", 100),
    ("CN(C)C(=O)Cn1cc(-c2ccc(-c3cncc4ccccc34)cc2)cn1", "%", 94),
    ("CC(C)[C@H](C(=O)Nc1ccc(C(=O)NO)cc1)c1ccccc1", "%", 100),
    ("CCCCCN1C(=O)C2(COc3cc4c(cc32)OCO4)c2ccccc21 (stereo unspecified)", "%", 100),
]

----------
Tested on: U2OS
Experiment: Multiplex assay against U2OS
Format: toxicity, cell-based
Settings: human, 24 h, 10 µM, compound concentration 10 uM

# COMPOUND, SUBJECT OF TEST, SCALE UNIT, Population Pyknosed Nuclei (%)
measured = [
    ("CC(C)(C)c1cc(NC(=O)Nc2ccc(-c3cn4c(n3)sc3cc(OCCN5CCOCC5)ccc34)cc2)no1 [QUIZARTINIB]", "U2OS", "%", 30),
    ("CCCCC1=NC2(CCCC2)C(=O)N1Cc1ccc(-c2ccccc2-c2nnn[nH]2)cc1 [IRBESARTAN]", "U2OS", "%", 8),
    ("Nc1nc(-c2ccco2)c2cnn(Cc3ccccc3F)c2n1", "U2OS", "%", 7),
    ("Nc1nc(CC(=O)Nc2ccc(CCNC[C@H](O)c3ccccc3)cc2)cs1 [MIRABEGRON]", "U2OS", "%", 7),
    ("N#Cc1c(Oc2cccc(OS(=O)(=O)CCCC(F)(F)F)c2)cccc1C(F)(F)F", "U2OS", "%", 7),
]
